Where do the numbers come from? From patent US8383581B2.

tgt: T1, rat PTH-1R (rat PTHR endogenously expressed on UMR-106 rat osteosarcoma cells) (rat, UniProt P25961 27-591)
T1 sequence (looked up): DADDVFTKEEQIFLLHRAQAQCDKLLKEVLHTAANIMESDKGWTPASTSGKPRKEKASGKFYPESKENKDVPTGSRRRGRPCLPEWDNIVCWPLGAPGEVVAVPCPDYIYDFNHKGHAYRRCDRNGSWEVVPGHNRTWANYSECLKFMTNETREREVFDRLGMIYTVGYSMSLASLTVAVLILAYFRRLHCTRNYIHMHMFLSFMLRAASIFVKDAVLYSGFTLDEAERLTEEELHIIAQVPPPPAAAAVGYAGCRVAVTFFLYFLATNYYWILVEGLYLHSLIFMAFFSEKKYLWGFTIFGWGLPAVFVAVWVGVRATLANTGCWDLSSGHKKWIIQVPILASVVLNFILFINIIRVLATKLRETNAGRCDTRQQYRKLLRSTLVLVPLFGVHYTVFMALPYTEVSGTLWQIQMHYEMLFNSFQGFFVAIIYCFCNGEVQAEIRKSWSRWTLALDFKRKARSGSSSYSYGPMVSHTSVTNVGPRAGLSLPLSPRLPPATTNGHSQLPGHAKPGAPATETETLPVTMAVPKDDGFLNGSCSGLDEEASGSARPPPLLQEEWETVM
assay_remarks: cell-based or functional assay
*1 amine or outer side, *2 acyl side, *3 side chain or, on linkers, in order; H or OH if unused. Where no end group is shown, it is not given here. [ ]: non-standard residue; d: D form. The star is where a group is joined. αMe‑APPA = 2-amino-2-methyl-5-phenylpentanoic acid, C[C@@](CCCc1ccccc1)(N[*:1])C(=O)[*:2]; Bip(2'-Et-4'-OMe) = CCc1cc(OC)ccc1-c1ccc(C[C@H](N)C(=O)O)cc1; αMePhe(2,6-F2) = C[C@](N)(Cc1c(F)cccc1F)C(=O)O; hhPhe = N[C@@H](CCCc1ccccc1)C(=O)O; hArg = N=C(N)NCCCC[C@H](N)C(=O)O; αMeF = C[C@](N)(Cc1ccccc1)C(=O)O; Cit = NC(=O)NCCC[C@H](N)C(=O)O; αMeV = CC(C)[C@](C)(N)C(=O)O; αMeM = CSCC[C@](C)(N)C(=O)O; Decanoyl = CCCCCCCCCC(=O)*; Nle = CCCC[C@H](N)C(=O)O; Ac5c = NC1(C(=O)O)CCCC1; Ac3c = NC1(C(=O)O)CC1; Aib = CC(C)(N)C(=O)O
measured_metric: cAMP released with respect to control, 1 nM peptide, UMR-106 cells

| binder | observed_result |
| --- | --- |
| [Ac5c]V[Aib]EIQ[αMePhe(2,6-F2)][Nle]HQ[hArg]AK[αMeF] [Seq. ID. 49] | 16 percent of control |
| [Ac5c]V[Ac3c]EIQL[Nle]HQ[hArg]AK(Decanoyl)[Bip(2'-Et-4'-OMe)][hhPhe] [Seq. ID. 637] | 36 percent of control |
| [Aib]V[Aib]EIQ[αMePhe(2,6-F2)][Nle]HQ[hArg][Aib][Cit][Bip(2'-Et-4'-OMe)][hhPhe] [Seq. ID. 820] | 14 percent of control |
| [Ac5c]V[Aib]EIQL[Nle]HQ[hArg]A[Cit][Bip(2'-Et-4'-OMe)][hhPhe] [Seq. ID. 733] | 36 percent of control |

Ask: Any idea what its cAMP released with respect to control, 1 nM peptide, UMR-106 cells is? The binder is [αMeV][Ac5c]V[Aib]EIQL[αMeM]HQ[hArg]A[hArg][Bip(2'-Et-4'-OMe)][αMe‑APPA] [Seq. ID. 926]
Result: 18 percent of control
